src = patent US20210388087A1

Listed here: items and their measured ratio of amounts bound (Z=Y/X).
# Tested target: T1, CD3 epsilon homodimer protein (UniProt P07766 23-126)
# T1 construct: also called CD3 (CD3 epsilon)
# T1 sequence (P07766 23-126): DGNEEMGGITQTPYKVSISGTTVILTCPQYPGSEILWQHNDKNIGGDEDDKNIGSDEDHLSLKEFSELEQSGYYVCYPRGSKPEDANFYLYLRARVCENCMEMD
# Test: SPR Biacore T200, CD3e homodimer on chip, vs unaltered GLS3000 antibody
Measurement label: ratio of amounts bound (Z=Y/X)

| Binder | Measurement label | Readout number |
| --- | --- | --- |
| GLS3000 G89H (antibody, name in Kabat numbering, V domains shown, one-arm IgG as m2) VH: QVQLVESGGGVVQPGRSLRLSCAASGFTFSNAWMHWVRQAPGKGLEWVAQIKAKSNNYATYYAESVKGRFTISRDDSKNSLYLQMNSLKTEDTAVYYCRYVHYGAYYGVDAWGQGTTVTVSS VL: DIVMTQSPLSLPVTPGEPASISCRSSQSLVHSNRNTYLHWYQQKPGQAPRLLIYKVSNRFSGVPDRFSGSGSGTDFTLKISRVEAEDVGVYYCHQGTQVPYTFGQGTKLEIK | ratio of amounts bound (Z=Y/X) | 0.7 |
| GLS3000 Y96H (antibody, name in Kabat numbering, V domains shown, one-arm IgG as m2) VH: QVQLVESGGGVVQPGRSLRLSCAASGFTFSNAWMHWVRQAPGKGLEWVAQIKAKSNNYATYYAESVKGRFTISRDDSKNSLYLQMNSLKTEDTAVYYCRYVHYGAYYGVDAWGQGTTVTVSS VL: DIVMTQSPLSLPVTPGEPASISCRSSQSLVHSNRNTYLHWYQQKPGQAPRLLIYKVSNRFSGVPDRFSGSGSGTDFTLKISRVEAEDVGVYYCGQGTQVPHTFGQGTKLEIK | ratio of amounts bound (Z=Y/X) | 0.23 |
| GLS3000 S52D (antibody, name in Kabat numbering, V domains shown, one-arm IgG as m2) VH: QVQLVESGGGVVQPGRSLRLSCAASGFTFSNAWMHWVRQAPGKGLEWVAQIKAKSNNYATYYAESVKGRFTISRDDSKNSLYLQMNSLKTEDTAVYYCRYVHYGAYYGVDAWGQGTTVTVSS VL: DIVMTQSPLSLPVTPGEPASISCRSSQSLVHSNRNTYLHWYQQKPGQAPRLLIYKVDNRFSGVPDRFSGSGSGTDFTLKISRVEAEDVGVYYCGQGTQVPYTFGQGTKLEIK | ratio of amounts bound (Z=Y/X) | 0.63 |
| GLS3000 R29A (antibody, name in Kabat numbering, V domains shown, one-arm IgG as m2) VH: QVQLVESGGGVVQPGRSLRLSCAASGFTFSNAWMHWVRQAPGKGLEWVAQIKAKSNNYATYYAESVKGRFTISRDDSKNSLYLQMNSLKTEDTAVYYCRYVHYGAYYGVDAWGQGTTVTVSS VL: DIVMTQSPLSLPVTPGEPASISCRSSQSLVHSNANTYLHWYQQKPGQAPRLLIYKVSNRFSGVPDRFSGSGSGTDFTLKISRVEAEDVGVYYCGQGTQVPYTFGQGTKLEIK | ratio of amounts bound (Z=Y/X) | 0.63 |
| GLS3000 S27eI (antibody, name in Kabat numbering, V domains shown, one-arm IgG as m2) VH: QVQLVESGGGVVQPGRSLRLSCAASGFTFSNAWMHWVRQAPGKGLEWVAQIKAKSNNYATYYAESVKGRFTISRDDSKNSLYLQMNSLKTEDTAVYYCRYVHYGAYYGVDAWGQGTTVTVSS VL: DIVMTQSPLSLPVTPGEPASISCRSSQSLVHINRNTYLHWYQQKPGQAPRLLIYKVSNRFSGVPDRFSGSGSGTDFTLKISRVEAEDVGVYYCGQGTQVPYTFGQGTKLEIK | ratio of amounts bound (Z=Y/X) | 1.07 |
